- Species: Cavia porcellus
- ASSAY REMARKS: Inhibitory concentration required to block Ca+2 induced contraction of K+ depolarized guinea pig taenia cecum
- Assay type: functional, Caecum
- CONDITION SET: Cavia porcellus, Caecum
pIC50: −log10 of the molar value.
ENDPOINT LABEL: pIC50

Solved cases below.
1) COc1cc(OC)cc(OCCN(C)CCCOc2ccc(OC)cc2C2Sc3ccccc3N(C)C2=O)c1 (centres undefined) : 6.26
2) COc1ccc(OCCCN(C)CCOc2c(OC)cccc2OC)c(C2Sc3ccccc3N(C)C2=O)c1 (centres undefined) : 6.29
3) COc1ccc(OCCCCN(C)CCc2cc(OC)c(OC)c(OC)c2)c(C2Sc3ccccc3N(C)C2=O)c1 (centres undefined) : 6.46
4) COc1ccc(OCCCCN(C)CCOc2ccc(OC)c(OC)c2)c(C2Sc3ccccc3N(C)C2=O)c1 (centres undefined) : 6.64
5) COc1ccc(OCCCN(C)CCOc2ccc3c(c2)OCO3)c(C2(C)Sc3ccccc3N(C)C2=O)c1 (centres undefined) : 5.68

a: COc1ccc(OCCCCN(C)CCOc2cc(OC)c(OC)c(OC)c2)c(C2Sc3ccccc3N(C)C2=O)c1 (centres undefined)
b: COc1ccc(OCCCN(C)CCOc2ccc3c(c2)OCO3)c(C2(SC)Sc3ccccc3N(C)C2=O)c1 (centres undefined)
c: COc1ccc(OCCCNCCOc2ccc3c(c2)OCO3)c(C2Sc3ccccc3N(C)C2=O)c1 (centres undefined)
d: COc1ccc(OCCCN(C)CCOc2ccc3c(c2)OCO3)c([C@H]2Sc3ccccc3N(C)C2=O)c1 [SEMOTIADIL]
In: // sort entries: pIC50, high to low The labels, placed in the requested order, form the answer.
Out: d, a, c, b

a: COc1ccc(OCCN(C)CCCCOc2ccc(OC)cc2C2Sc3ccccc3N(C)C2=O)cc1 (centres undefined)
b: COc1ccc(OCCCN(CCOc2ccc3c(c2)OCO3)C(C)C)c(C2Sc3ccccc3N(C)C2=O)c1 (centres undefined)
c: COc1ccc(OCCCN(C)CCOc2cc(OC)c(OC)c(OC)c2)c(C2Sc3ccccc3N(C)C2=O)c1 (centres undefined)
In: Provide the items ranked by increasing pIC50. The labels, placed in the requested order, form the answer.
Out: b, a, c
(b: 5.72, a: 6.28, c: 6.64)

* * *

- ASSAY REMARKS: Selectivity ratio of IC50 for [Ca2+] antagonistic activity in aorta / IC50 for suppressive effect on contractile force
- Type: functional
Consider the following compounds and their measured Ratio readings.
Give the figure by itself; no unit, no explanation.

1. COc1ccc(OCCCN(C)CCc2cc(OC)c(OC)c(OC)c2)c(C2Sc3ccccc3N(C)C2=O)c1 (centres undefined) : 4.6

In: Suppose we examine the compound COc1ccc(OCCCCN(C)CCOc2cc(OC)c(OC)c(OC)c2)c(C2Sc3ccccc3N(C)C2=O)c1 (centres undefined) ; what Ratio value has been reported?
Out: 7.5

In: Suppose we examine the compound COc1ccc(OCCCN(C)CCOc2ccc3c(c2)OCO3)c([C@H]2Sc3ccccc3N(C)C2=O)c1 ; what Ratio value has been reported?
Out: 3.4

In: Suppose we examine the compound COc1ccc([C@@H]2Sc3ccccc3N(CCN(C)C)C(=O)[C@@H]2OC(C)=O)cc1 ; what Ratio value has been reported?
Out: 47.4

In: Suppose we examine the compound COc1ccc(OCCCCN(C)CCOc2ccc(OC)c(OC)c2)c(C2Sc3ccccc3N(C)C2=O)c1 (centres undefined) ; what Ratio value has been reported?
Out: 6.6

In: Suppose we examine the compound COc1ccc(OCCCN(C)CCOc2ccc3c(c2)OCO3)c(C2Sc3ccccc3N(C)C2=O)c1 (stereo in doubt; 15) ; what Ratio value has been reported?
Out: 2.1

In: Suppose we examine the compound COc1ccc(OCCCN(C)CCOc2cc(OC)c(OC)c(OC)c2)c(C2Sc3ccccc3N(C)C2=O)c1 (centres undefined) ; what Ratio value has been reported?
Out: 11.1

In: Suppose we examine the compound COc1ccc(OCCCCN(C)CCOc2ccc3c(c2)OCO3)c(C2Sc3ccccc3N(C)C2=O)c1 (centres undefined) ; what Ratio value has been reported?
Out: 3.5

In: Suppose we examine the compound COc1ccc(CCN(C)CCCC(C#N)(c2ccc(OC)c(OC)c2)C(C)C)cc1OC (centres undefined) ; what Ratio value has been reported?
Out: 17.7
